target: Wee1-like protein kinase (Homo sapiens, UniProt P30291); experiment: Inhibition of Wee1 in human U2OS cells assessed as reduction in CDK1 phosphorylation measured for 1 hr by Western blot analysis; format: cell-based
Sequence (P30291 whole entry): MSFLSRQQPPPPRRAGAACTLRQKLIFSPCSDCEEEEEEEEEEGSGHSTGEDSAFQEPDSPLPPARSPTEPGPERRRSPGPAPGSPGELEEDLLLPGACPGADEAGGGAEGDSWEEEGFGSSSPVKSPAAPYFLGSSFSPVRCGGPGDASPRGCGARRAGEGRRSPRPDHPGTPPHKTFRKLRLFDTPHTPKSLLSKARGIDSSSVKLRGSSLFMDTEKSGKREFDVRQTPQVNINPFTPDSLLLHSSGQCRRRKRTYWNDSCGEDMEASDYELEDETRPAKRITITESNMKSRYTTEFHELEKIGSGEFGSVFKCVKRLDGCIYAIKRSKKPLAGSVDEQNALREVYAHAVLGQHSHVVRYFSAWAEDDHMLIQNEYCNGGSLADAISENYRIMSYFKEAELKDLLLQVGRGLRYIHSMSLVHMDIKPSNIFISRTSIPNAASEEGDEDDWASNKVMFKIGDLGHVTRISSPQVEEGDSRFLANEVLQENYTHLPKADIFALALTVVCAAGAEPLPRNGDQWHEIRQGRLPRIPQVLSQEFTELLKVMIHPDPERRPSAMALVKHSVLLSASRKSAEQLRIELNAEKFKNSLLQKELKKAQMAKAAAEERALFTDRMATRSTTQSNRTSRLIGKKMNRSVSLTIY
pIC50: −log10 of the molar value.

STRUCTURE_AS_SMILES	pIC50
C=CCn1c(=O)c2cnc(Nc3ccc(N4CCN(C)CC4)cc3)nc2n1-c1cccc(-c2cnccn2)n1	6.37
C=CCn1c(=O)c2cnc(Nc3ccc(N4CCN(C)CC4)cc3)nc2n1-c1cccc(-c2ncc(C)cn2)n1	6.44
C=CCn1c(=O)c2cnc(Nc3ccc(N4CCN(C)CC4)cc3)nc2n1-c1cccc(-c2ncccn2)n1	6.33
C=CCn1c(=O)c2cnc(Nc3ccc(N4CCC(N5CCN(C)CC5)CC4)cc3)nc2n1-c1cccc(-c2ncccn2)n1	6.04
C=CCn1c(=O)c2cnc(Nc3ccc(N4CCC(N5CCN(C)CC5)CC4)cc3)nc2n1-c1cccc(-c2cnccn2)n1	6.40
C=CCn1c(=O)c2cnc(Nc3ccc(N4CCN(C)CC4)cc3)nc2n1-c1ccc2c(n1)[C@@](O)(CC)CC2	6.25
C=CCn1c(=O)c2cnc(Nc3ccc(N4CCN(CC)CC4)cc3)nc2n1-c1cccc(-c2cnccn2)n1	6.47
C=CCn1c(=O)c2cnc(Nc3ccc(N4[C@@H]5CC[C@H]4CN(C)C5)cc3)nc2n1-c1cccc(-c2ncccn2)n1	6.78

Attribution: ChEMBL document CHEMBL5512688
